Kindly state IC50 for each of the entries shown.
tgt: MDM2 (Homo sapiens, UniProt Q00987)
Sequence (Q00987 1-125): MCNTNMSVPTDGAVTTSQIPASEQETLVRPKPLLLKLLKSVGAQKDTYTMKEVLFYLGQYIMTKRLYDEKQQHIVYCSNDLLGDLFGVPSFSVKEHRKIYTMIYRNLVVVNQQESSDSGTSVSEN
test description: Competitive fluorescence polarization assay for MDM2
Type: binding
condition context: competitive FP assay, MDM2; read-out: IC50 (MDM2)
Where a SMILES comes first, the peptide text is derived from it. Bridges are numbered along the chain shown (N, C = ends). [ ]: non-standard residue; d: D form. dPhe(4-CF3) = N[C@H](Cc1ccc(C(F)(F)F)cc1)C(=O)O; R5 = C=CCCC[C@@](C)(N)C(=O)O

[
  {
    "compound": "CCCC[C@H](NC(=O)[C@H](C)NC(=O)[C@H](C)NC(=O)[C@]1(C)CCCC=CCCCCCC[C@@](C)(NC(=O)[C@H](Cc2ccccc2)NC(=O)[C@@H](NC(=O)[C@H](CC(C)C)NC(C)=O)[C@@H](C)O)C(=O)N[C@@H](C)C(=O)N[C@@H](Cc2ccc(O)cc2)C(=O)N[C@@H](Cc2c[nH]c3ccccc23)C(=O)NC(C)(C)C(=O)N[C@@H](CCC(N)=O)C(=O)N[C@@H](CC(C)C)C(=O)N1)C(=O)N[C@@H](C)C(N)=O (single isomer, unassigned) [compound 390]",
    "IC50": "10 to 100 nM"
  }
]

Value of measured IC50 for the entry CC(=O)N[C@@H](C(=O)N[C@H](C)C(=O)N[C@H](Cc1c[nH]c2ccccc12)C(=O)N[C@H](Cc1ccc(O)cc1)C(=O)N[C@]1(C)CCCC=CCCC[C@](C)(C(=O)N[C@H](CC(C)C)C(=O)N[C@H](CC(C)C)C(=O)N[C@H](CCCNC(=N)N)C(N)=O)NC(=O)[C@@H](CCC(=O)O)NC(=O)[C@@H](Cc2ccc(C(F)(F)F)cc2)NC(=O)[C@@H](CC(N)=O)NC1=O)[C@H](C)O [compound 753] (Ac-[dT][dA][dW][dY][R5][dN][dPhe(4-CF3)][dE][R5][dL][dL][dR]-NH2; staple 5-9) : 10 to 100 nM

----------
tgt: MDM2 (Homo sapiens, UniProt Q00987)
test description: Competitive fluorescence polarization assay for MDM2
Type: binding
condition context: competitive FP assay, MDM2; read-out: IC50 (MDM2)
measured quantity: IC50

Record CCCC[C@H](NC(=O)[C@H](C)NC(=O)[C@H](C)NC(=O)[C@]1(C)CCCC=CCCCCCC[C@@](C)(NC(=O)[C@H](Cc2ccccc2)NC(=O)[C@@H](NC(=O)[C@H](CC(C)C)NC(C)=O)[C@@H](C)O)C(=O)N[C@@H](C)C(=O)N[C@@H](Cc2ccc(O)cc2)C(=O)N[C@@H](Cc2c[nH]c3ccccc23)C(=O)N[C@@H](C)C(=O)N[C@@H](CCC(N)=O)C(=O)N[C@@H](CC(C)C)C(=O)N1)C(=O)N[C@H](C)C(N)=O (single isomer, unassigned) . Reported IC50: 0.01 to 0.1 µM

----------
tgt: MDM2 (Homo sapiens, UniProt Q00987)
test description: Competitive fluorescence polarization assay for MDM2
Format: binding
condition context: competitive FP assay, MDM2; read-out: Ki (MDM2)
pKi: −log10 of the molar value. Where a SMILES comes first, the peptide text is derived from it. Bridges are numbered along the chain shown (N, C = ends). [ ]: non-standard residue; d: D form. R8 = C=CCCCCCC[C@@](C)(N)C(=O)O; Cba = N[C@@H](CC1CCC1)C(=O)O; S5 = C=CCCC[C@](C)(N)C(=O)O; Nle = CCCC[C@H](N)C(=O)O
Please provide measured pKi for the entries that follow.

[
  {
    "molecule": "CCCC[C@H](NC(=O)[C@H](C)NC(=O)[C@H](C)NC(=O)[C@]1(C)CCCC=CCCCCCC[C@@](C)(NC(=O)[C@H](Cc2ccccc2)NC(=O)[C@@H](NC(=O)[C@H](CC(C)C)NC(C)=O)[C@@H](C)O)C(=O)N[C@@H](C)C(=O)N[C@@H](Cc2ccc(O)cc2)C(=O)N[C@@H](Cc2c[nH]c3ccccc23)C(=O)N[C@@H](C)C(=O)N[C@@H](CCC(N)=O)C(=O)N[C@@H](CC(C)C)C(=O)N1)C(=O)N[C@@H](C)C(=O)NC(C)(C)C(N)=O (single isomer, unassigned)",
    "pKi": "> 8.00"
  }
]

// sample CCCC[C@H](NC(=O)[C@H](C)NC(=O)[C@H](C)NC(=O)[C@]1(C)CCCC=CCCCCCC[C@@](C)(NC(=O)[C@H](Cc2ccccc2)NC(=O)[C@@H](NC(=O)[C@H](CC(C)C)NC(C)=O)[C@@H](C)O)C(=O)N[C@@H](C)C(=O)N[C@@H](Cc2ccc(O)cc2)C(=O)N[C@@H](Cc2c[nH]c3ccccc23)C(=O)N[C@@H](C)C(=O)N[C@@H](CCC(N)=O)C(=O)N[C@@H](CC2CCC2)C(=O)N1)C(=O)N[C@@H](C)C(N)=O [compound 236] (Ac-LTF[R8]AYWAQ[Cba][S5]AA[Nle]A-NH2; staple 4-11) , its pKi was > 8.00
